# protocolSummary: in vitro
# assayConditions: human, 16HBE14o- cells
# Description: Cytotoxicity against human 16HBE14o- after 72 hrs by MTT assay
Catalogue of CC50 at 72 h values
quantityName: CC50 at 72 h

>  <structureString>
Cn1cc(-c2cc(-c3cc(Cl)cc(OCCC(F)(F)F)c3)c(=O)n(-c3cccnc3)c2)c(=O)[nH]c1=O

>  <obsValue>
95 µM

$$$$
>  <structureString>
N#Cc1ccccc1-c1cc(-c2cc(Cl)cc(OCC3CC3)c2)c(=O)n(-c2cccnc2)c1

>  <obsValue>
> 100 µM

$$$$
>  <structureString>
Cn1cc(-c2cc(-c3cc(Cl)cc(OCC4CC4)c3)c(=O)n(-c3cccnc3)c2)c(=O)[nH]c1=O

>  <obsValue>
> 100 µM

$$$$
>  <structureString>
CCCOc1cc(Cl)cc(-c2cc(-c3ccccc3C#N)cn(-c3cccnc3)c2=O)c1

>  <obsValue>
20 µM

$$$$
>  <structureString>
CCC(CC)COC(=O)[C@H](C)N[P@](=O)(OC[C@H]1O[C@@](C#N)(c2ccc3c(N)ncnn23)[C@H](O)[C@@H]1O)Oc1ccccc1

>  <obsValue>
41 µM

$$$$
>  <structureString>
Cn1cc(-c2cc(-c3cc(Cl)c(F)c(OCc4ccccc4Cl)c3)c(=O)n(-c3cccnc3)c2)c(=O)[nH]c1=O

>  <obsValue>
> 32.5 µM

$$$$
>  <structureString>
O=c1[nH]cc(-c2cc(-c3cc(Cl)cc(OCc4scnc4C(F)(F)F)c3)c(=O)n(-c3cccnc3)c2)c(=O)[nH]1

>  <obsValue>
> 100 µM

$$$$
>  <structureString>
O=c1[nH]cc(-c2cc(-c3cc(Cl)c(F)c(OCc4ccccc4Cl)c3)c(=O)n(-c3cccnc3)c2)c(=O)[nH]1

>  <obsValue>
> 95 µM

$$$$

* * *

# protocolSummary: in vitro
# assayConditions: chlorocebus sabaeus, Vero E6 cells
# Description: Cytotoxicity against African green monkey Vero E6 cells after 72 hrs by MTT assay

>  <structureString>
CCC(CC)COC(=O)[C@H](C)N[P@](=O)(OC[C@H]1O[C@@](C#N)(c2ccc3c(N)ncnn23)[C@H](O)[C@@H]1O)Oc1ccccc1

>  <CC50 at 72 h>
72 µM

$$$$
>  <structureString>
CCCOc1cc(Cl)cc(-c2cc(-c3ccccc3C#N)cn(-c3cccnc3)c2=O)c1

>  <CC50 at 72 h>
22 µM

$$$$
>  <structureString>
N#Cc1ccccc1-c1cc(-c2cc(Cl)cc(OCC3CC3)c2)c(=O)n(-c2cccnc2)c1

>  <CC50 at 72 h>
> 100 µM

$$$$
>  <structureString>
N#Cc1ccccc1-c1cc(-c2cc(Cl)cc(OCCC(F)(F)F)c2)c(=O)n(-c2cccnc2)c1

>  <CC50 at 72 h>
22 µM

$$$$

* * *

# protocolSummary: in vitro
# assayConditions: human, 16HBE14o- cells

>  <structureString>
Cn1cc(-c2cc(-c3cc(Cl)cc(OCc4scnc4C(F)(F)F)c3)c(=O)n(-c3cccnc3)c2)c(=O)[nH]c1=O

>  <CC50 at 72 h>
> 100 µM

$$$$
>  <structureString>
O=c1[nH]cc(-c2cc(-c3cc(Cl)cc(OCc4ocnc4C(F)(F)F)c3)c(=O)n(-c3cccnc3)c2)c(=O)[nH]1

>  <CC50 at 72 h>
> 100 µM

$$$$
>  <structureString>
N#Cc1ccccc1-c1cc(-c2cc(Cl)cc(OCCC(F)(F)F)c2)c(=O)n(-c2cccnc2)c1

>  <CC50 at 72 h>
25 µM

$$$$

* * *

# protocolSummary: in vitro
# assayConditions: PAMPA, pH 7.4
# Description: Permeability of compound in PBS at pH 7.4 after 18 hrs by PAMPA

>  <structureString>
Cn1c(=O)c2[nH]cnc2n(C)c1=O.O

>  <unitsText>
×10⁻⁶ cm/s

>  <Papp at 18 h>
0.3

$$$$
>  <structureString>
O=C(N[C@H](CO)[C@H](O)c1ccc([N+](=O)[O-])cc1)C(Cl)Cl

>  <unitsText>
×10⁻⁶ cm/s

>  <Papp at 18 h>
5

$$$$

* * *

# protocolSummary: Aqueous solubility of the compound in Britton-Robinson buffer at pH 6.5 after 48 hrs by shake flask method
# Type: physicochemical
quantityName: solubility thermodynamic at 48 h (µg/mL)

>  <structureString>
Cn1cc(-c2cc(-c3cc(Cl)cc(OCC4CC4)c3)c(=O)n(-c3cccnc3)c2)c(=O)[nH]c1=O

>  <obsValue>
14.2

$$$$
>  <structureString>
Cc1ncoc1COc1cc(Cl)cc(-c2cc(-c3c[nH]c(=O)[nH]c3=O)cn(-c3cccnc3)c2=O)c1

>  <obsValue>
168

$$$$
>  <structureString>
Cc1ocnc1COc1cc(Cl)cc(-c2cc(-c3c[nH]c(=O)[nH]c3=O)cn(-c3cccnc3)c2=O)c1

>  <obsValue>
7.6

$$$$
>  <structureString>
O=c1[nH]cc(-c2cc(-c3cc(Cl)c(F)c(OCc4ccccc4Cl)c3)c(=O)n(-c3cccnc3)c2)c(=O)[nH]1

>  <obsValue>
21.8

$$$$
>  <structureString>
Cn1cc(-c2cc(-c3cc(Cl)cc(OCCC(F)(F)F)c3)c(=O)n(-c3cccnc3)c2)c(=O)[nH]c1=O

>  <obsValue>
57

$$$$
>  <structureString>
Cc1ocnc1COc1cc(Cl)cc(-c2cc(-c3ccccc3C#N)cn(-c3cccnc3)c2=O)c1

>  <obsValue>
13.1

$$$$
>  <structureString>
Cn1cc(-c2cc(-c3cc(Cl)c(F)c(OCc4ccccc4Cl)c3)c(=O)n(-c3cccnc3)c2)c(=O)[nH]c1=O

>  <obsValue>
116

$$$$
>  <structureString>
Cn1cc(-c2cc(-c3cc(Cl)cc(OCc4ocnc4C(F)(F)F)c3)c(=O)n(-c3cccnc3)c2)c(=O)[nH]c1=O

>  <obsValue>
34.5

$$$$
>  <structureString>
N#Cc1ccccc1-c1cc(-c2cc(Cl)cc(OCCC(F)(F)F)c2)c(=O)n(-c2cccnc2)c1

>  <obsValue>
25

$$$$
>  <structureString>
N#Cc1ccccc1-c1cc(-c2cc(Cl)cc(OCC3CC3)c2)c(=O)n(-c2cccnc2)c1

>  <obsValue>
3

$$$$
>  <structureString>
Cn1cc(-c2cc(-c3cc(Cl)cc(OCc4scnc4C(F)(F)F)c3)c(=O)n(-c3cccnc3)c2)c(=O)[nH]c1=O

>  <obsValue>
24.8

$$$$
